Biological target: T1, rat α-CGRP (Rattus norvegicus, UniProt P01256)
T1 construct: rat α (1-37); host or cells: synthetic peptide
T1 sequence (P01256 83-119 limits assumed): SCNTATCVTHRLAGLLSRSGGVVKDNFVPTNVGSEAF
Assay: Biacore affinity of antibody G1 Fab and variants to rat α-CGRP
Assay type: binding
Conditions: 37° C., Fab, screening mode unless underlined
outcomeMeasure: α-rat koff (s⁻¹)

>>> recordedmeasurement("M20: G1 variant: L1 R28W; HC-FW3 L99R,A100L (antibody, V domains shown) VH: EVQLVESGGGLVQPGGSLRLSCAASGFTFSNYWISWVRQAPGKGLEWVAEIRSESDASATHYAEAVKGRFTISRDNAKNSLYLQMNSLRAEDTAVYYCRLYFDYGLAIQNYWGQGTLVTVSS VL: EIVLTQSPATLSLSPGERATLSCKASKWVTTYVSWYQQKPGQAPRLLIYGASNRYLGIPARFSGSGSGTDFTLTISSLEPEDFAVYYCSQSYNYPYTFGQGTKLEIK")
0.00144

The measured values listed here are drawn from patent US10766952B2.
